Where these numbers come from: patent US20120232062A1

Test system: HCV genotype 1b
PROTOCOL_DETAILS: HCV 1b replicon luciferase assay
Assay type: cell-based
RECORDED_CONDITIONS: Hepatitis C virus, Huh-7, 48 h, Table 1; Huh7 HCV 1b replicon, luciferase reporter, 48 hours; read-out: 1b EC50
PROPERTY_MEASURED: EC50 (µM)
Could you give me the number in µM? Just the number is fine.

Request: Field request: EC50 | item: Cn1nc(C(=O)NC2CCN(CCN3CCCCCC3)CC2)c2ccc(N3CCCCCCC3)nc21 [compound 1310]
Result: 0.23

Request: Consider next the compound O=C(NCC1CCNCC1)c1n[nH]c2nc(N3CCCCCC3)ccc12 [compound 702] in the same way.
Result: 3.4

Request: Likewise for O=C(NC1CCCNC1)c1nnc2n(Cc3ccc(Cl)cc3)c(N3CCCCCC3)ccc1-2 (centres unmarked) [compound 710] ?
Result: 7.9

Request: Same read-out for Clc1ccc(Cn2nc(CN3CCCC3)c3ccc(N4CCCCCC4)nc32)cc1 [compound 763] ?
Result: 8.7

Request: Subsequent entry: CCC(CC)Oc1ccc2c(C(=O)NC3CCCNC3)nn(C)c2n1 (centres unmarked) [compound 815]
Result: 6.6

Request: What do you have for CC(c1ccncc1)N1CCC(NC(=O)c2nn(C)c3nc(N4CCCCCCC4)ccc23)CC1 (centres unmarked) [compound 1304] ?
Result: 1.4

Request: Let us now turn to Cn1nc(CCCN2CCCC(CO)C2)c2ccc(N3CCCCCCC3)nc21 (centres unmarked) [compound 1460]
Result: 2.7

Request: Please answer likewise for Cn1nc(CCCN2C[C@@H](O)[C@@H](O)C2)c2ccc(N3CCCCCCC3)nc21 [compound 1495]
Result: 4.7

###

PROTOCOL_DETAILS: In vivo rat pharmacokinetic studies
RECORDED_CONDITIONS: plasma, 40 mg/kg; rat, PO 40 mpk vs IV 1 mpk
PROPERTY_MEASURED: bioavailability (%)
Quick reminder: number only, in %, skip the unit.

Request: Fill blank: measured bioavailability of the compound Cn1nc(C(=O)NC2CCN(CCN3CCCC3)CC2)c2ccc(N3CCCCCC3)nc21 is ____.
Result: 9

###

PROTOCOL_DETAILS: In vivo rat pharmacokinetic studies
RECORDED_CONDITIONS: 40 mg/kg; rat, PO 40 mpk, 0.25 h, liver/plasma; read-out: L/P Ratio
PROPERTY_MEASURED: Kp at 0.25 h
Write no unit; give the number alone.

Request: Fill in: Kp at 0.25 h of Cn1nc(C(=O)NC2CCN(CCN3CCCC3)CC2)c2ccc(N3CCCCCC3)nc21 is ___
Result: 1670

###

ASSAYED_SYSTEM: CYP 2D6 (Homo sapiens)
Construct: For human liver microsome solution, a stock solution (20 mg/mL (4×final)) is used; from tissue; host or cells: human liver microsomes
Sequence (P10635 whole entry): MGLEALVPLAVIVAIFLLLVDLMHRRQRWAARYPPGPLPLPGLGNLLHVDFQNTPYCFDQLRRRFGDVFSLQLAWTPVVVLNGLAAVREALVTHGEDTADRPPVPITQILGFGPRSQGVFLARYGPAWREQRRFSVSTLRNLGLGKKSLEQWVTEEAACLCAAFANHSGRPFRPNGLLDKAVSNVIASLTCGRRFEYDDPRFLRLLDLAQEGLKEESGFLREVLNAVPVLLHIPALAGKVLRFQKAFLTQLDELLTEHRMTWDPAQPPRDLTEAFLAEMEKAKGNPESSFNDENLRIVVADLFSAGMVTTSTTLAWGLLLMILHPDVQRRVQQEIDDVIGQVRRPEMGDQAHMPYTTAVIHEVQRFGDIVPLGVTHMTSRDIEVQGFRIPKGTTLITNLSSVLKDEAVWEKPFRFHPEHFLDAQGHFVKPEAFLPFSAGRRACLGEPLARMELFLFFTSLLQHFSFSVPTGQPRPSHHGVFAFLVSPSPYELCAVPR
PROTOCOL_DETAILS: CYP inhibition testing, CYP 2D6
Assay type: in vitro ADME
RECORDED_CONDITIONS: human liver microsomes; >75 = low level of inhibition
Listing of entries alongside the reported CYP (% negative controls) 2D6.
Report as a plain number; the unit % negative controls is understood.

Guide cases for CYP (% negative controls) 2D6, answers given:
[
  {
    "COMPOUND": "CCC(CC)Oc1ccc2c(C(=O)NC3CCNCC3)n[nH]c2n1 [compound 726]",
    "VALUE_UNITS": "% negative controls",
    "CYP (% negative controls) 2D6": 72
  },
  {
    "COMPOUND": "Cn1nc(C(=O)NC2CCN(CCN3CCCCC3)CC2)c2ccc(N3CCCCCC3)nc21 [compound 1047]",
    "VALUE_UNITS": "% negative controls",
    "CYP (% negative controls) 2D6": 72
  },
  {
    "COMPOUND": "Cn1nc(CCCN2CCCC2)c2ccc(N3CCCCCCC3)nc21 [compound 1171]",
    "VALUE_UNITS": "% negative controls",
    "CYP (% negative controls) 2D6": 62
  }
]

Next up:
Request: What is its CYP (% negative controls) 2D6 for CYP 2D6 (Homo sapiens)? Entry: Cn1nc(C(=O)NC2CCNCC2)c2ccc(N3CCCCCC3)nc21.O=C(O)C(F)(F)F.O=C(O)C(F)(F)F [compound 697]
Result: 80
